Target: T1, recombinant biotinylated human PAR2 extracellular domain (residues 1-75), N-terminal AviTag, C-terminal Flag … (human, UniProt P55085 26-75, biotin on the AviTag (enzymatic biotinylation))
T1 construct: also called Bio-human-PAR2 ECD; human PAR2 ECD; not shown: N-terminal AviTag (Avidity LLC); C-terminal Flag and poly Histidine tags
T1 sequence (P55085 26-75): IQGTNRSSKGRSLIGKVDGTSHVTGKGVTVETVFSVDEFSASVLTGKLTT
Assay: HTRF competition with Dylight650-Par0067 IgG, IgG
Listed here: items and their measured Fold IC50 pH 7.4 (Variant v Par0067).
Use fold as the unit, but write only the number.

Known results for binders:
# BINDER, UNIT_OF_MEASUREMENT, EXPERIMENTAL_RESULT
data = [
    ("PaB670156 IgG (antibody, V domains shown, IgG1-TM (L234F, L235E, P331S), human lambda light chain) VH: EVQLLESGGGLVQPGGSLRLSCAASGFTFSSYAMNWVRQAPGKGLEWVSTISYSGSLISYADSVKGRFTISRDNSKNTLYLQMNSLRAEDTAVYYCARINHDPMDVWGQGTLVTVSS VL: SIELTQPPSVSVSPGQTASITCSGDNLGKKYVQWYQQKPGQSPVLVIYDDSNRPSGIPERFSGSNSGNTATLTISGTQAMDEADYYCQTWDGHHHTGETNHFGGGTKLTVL", "fold", 8.4),
    ("PaB670129 IgG1TM (antibody, V domains shown, IgG1-TM (L234F, L235E, P331S), human lambda light chain; also called ZZ1RUE-F02) VH: EVQLLESGGGLVQPGGSLRLSCAASGFTFSSYAMNWVRQAPGKGLEWVSTISYHGSHISYHDSVHHRFTISRDNSKNTLYLQMNSLRAEDTAVYYCARIHHDPMDVWGQGTLVTVSS VL: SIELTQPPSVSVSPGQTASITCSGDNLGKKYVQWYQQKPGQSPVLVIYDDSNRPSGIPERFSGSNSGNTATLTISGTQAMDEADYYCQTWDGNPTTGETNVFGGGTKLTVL", "fold", 67.2),
    ("PaB670045 IgG (antibody, V domains shown, IgG1-TM (L234F, L235E, P331S), human lambda light chain; also called ZZ1KX3-F01) VH: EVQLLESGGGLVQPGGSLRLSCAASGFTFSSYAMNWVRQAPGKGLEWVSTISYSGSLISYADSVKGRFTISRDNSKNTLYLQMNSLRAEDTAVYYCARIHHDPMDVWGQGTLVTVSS VL: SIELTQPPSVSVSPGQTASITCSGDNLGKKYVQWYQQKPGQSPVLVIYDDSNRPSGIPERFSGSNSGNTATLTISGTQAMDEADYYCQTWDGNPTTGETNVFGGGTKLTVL", "fold", 3.5),
]

Field: next binder
Inquiry: Let me know recorded Fold IC50 pH 7.4 (Variant v Par0067) for PaB670163 IgG (antibody, V domains shown, IgG1-TM (L234F, L235E, P331S), human lambda light chain) VH: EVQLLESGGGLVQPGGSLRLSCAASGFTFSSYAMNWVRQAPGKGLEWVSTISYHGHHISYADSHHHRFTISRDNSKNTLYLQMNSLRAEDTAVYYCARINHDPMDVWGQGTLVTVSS VL: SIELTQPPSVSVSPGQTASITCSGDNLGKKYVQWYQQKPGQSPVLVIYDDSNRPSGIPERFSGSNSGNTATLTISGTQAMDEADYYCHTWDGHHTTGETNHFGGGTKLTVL , thanks.
Reply text: 174
